Target: Cdc4 (yeast F-box protein, recombinant, expressed in baculovirus-infected insect cells) (yeast)
Assay: equilibrium binding (Table in FIG. 3)
reportedEndpoint: pKd
Units for pKd: none; it is -log10 of a concentration expressed in mol/L.

INPUT: For the substance shown here, Gcn4-9mer FLPpTPVLED (peptide) , give the reported pKd.
OUTPUT: 6.17

* * *

Biological target: Cdc4 (yeast F-box protein, recombinant, expressed in baculovirus-infected insect cells) (yeast) (UniProt P07834)
Sequence (P07834 whole entry): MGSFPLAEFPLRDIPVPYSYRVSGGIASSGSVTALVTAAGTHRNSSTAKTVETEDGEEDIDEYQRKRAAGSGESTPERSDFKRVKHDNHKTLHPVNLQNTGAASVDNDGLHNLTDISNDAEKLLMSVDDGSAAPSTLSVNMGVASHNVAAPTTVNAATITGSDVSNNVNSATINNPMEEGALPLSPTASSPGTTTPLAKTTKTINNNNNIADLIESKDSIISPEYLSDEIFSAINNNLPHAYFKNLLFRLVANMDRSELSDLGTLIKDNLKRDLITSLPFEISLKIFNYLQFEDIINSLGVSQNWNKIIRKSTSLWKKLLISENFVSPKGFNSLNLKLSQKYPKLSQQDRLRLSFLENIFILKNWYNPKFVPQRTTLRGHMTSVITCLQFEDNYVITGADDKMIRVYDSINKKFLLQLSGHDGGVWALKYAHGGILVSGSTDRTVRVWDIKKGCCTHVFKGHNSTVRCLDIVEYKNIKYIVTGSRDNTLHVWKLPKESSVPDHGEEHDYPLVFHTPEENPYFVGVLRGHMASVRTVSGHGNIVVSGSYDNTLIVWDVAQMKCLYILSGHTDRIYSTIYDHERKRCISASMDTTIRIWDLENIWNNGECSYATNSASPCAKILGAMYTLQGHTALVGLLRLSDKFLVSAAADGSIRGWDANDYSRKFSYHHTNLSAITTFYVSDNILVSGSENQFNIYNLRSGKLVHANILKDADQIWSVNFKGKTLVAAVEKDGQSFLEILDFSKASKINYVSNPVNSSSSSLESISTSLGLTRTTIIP
Experiment: equilibrium binding
reportedEndpoint: pKd
The value called pKd is obtained by taking minus log10 of the concentration in mol/L.

INPUT: Which pKd value is on record for Cdc 16 peptide LSKNLLpTPQEEWD ?
OUTPUT: 6.12
